meta.source: paper PMC11480844

B1: H2-Kb / Ed23 (parent complex)
chain 1: QQKVQQSPESLTVSEGAMASLNCTFSDRSSDNFRWYRQHSGKGLEVLVSIFSDGEKEEGSFTAHLNRASLHVFLHIREPQPSDSALYLCAVRGFWTNKVVFGTGTRLQVLP
chain 2: AQTIHQWPVAEIKAVGSPLSLGCTIKGKSSPNLYWYWQATGGTLQQLFYSITVGQVESVVQLNLSASRPKDDQFILSTEKLLLSHSGFYLCAWSPRQSSYEQYFGPGTRLTVL
chain 3: not shown
chain 4: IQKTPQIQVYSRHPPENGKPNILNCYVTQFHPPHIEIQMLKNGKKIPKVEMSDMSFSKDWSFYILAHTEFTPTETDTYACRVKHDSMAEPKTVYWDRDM
chain 5: SIINFEKL

Variants of: B1
assay.text: % of reporter cells activated (NFAT-GFP), raw; also: test concentration or dose not given here
reported.metric: ratio to parent

variant.notation	ratio to parent
chain 5 F5Y	1.32
chain 5 S1R	1.01
chain 5 L8N	1.05
chain 5 K7M	1.12
chain 5 F5P	0.864
chain 5 L8P	1.24
chain 5 F5D	0.997
